inhibition listing for selected molecules.
tested-target: cAMP-dependent protein kinase catalytic subunit alpha (Homo sapiens) (UniProt P17612);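 also: reported value is the mean percent inhibition of PKA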
condition-details: at 0.1 µM
measurement-label: inhibition (%)

entry-smiles	measurement-label	assay-value
CCn1c(-c2nonc2N)nc2c(C#CC(C)(C)O)nc(O[C@@H](CN)c3ccccc3)cc21	inhibition	80.3
Cc1cc(-c2ccco2)cc(C)c1/C=C/c1cncc(-c2nn[nH]n2)c1	inhibition	-2.7
Nc1nonc1-c1nc2cnccc2n1C1CCCCC1	inhibition	19.5
COc1cc2c(cc1Nc1nc(Nc3ccsc3C(N)=O)c3cc[nH]c3n1)N(C(=O)CN(C)C)CCC2	inhibition	4.62
NC(=O)c1sc(-n2cnc3cc(C(F)(F)F)ccc32)cc1OCc1ccccc1Br	inhibition	2.16
CCn1c(-c2nonc2N)nc2c(C#CC(C)(C)O)ncc(OC[C@@H]3CCCN3)c21	inhibition	68.7
Fc1ccc(-c2ncn(C3CCNCC3)c2-c2ccnc(Oc3ccccc3)n2)cc1	inhibition	7.46
COc1cc(C=NNc2ncnc3c2cnn3Cc2ccccc2)ccc1O	inhibition	-0.54
